melting point values for the molecules below.
Readout Label: melting point

[[record]]
molecule = "Cc1cc(I)ccc1OC=C1C=CC=CC1n1nnn(C)c1=O (centres undefined)"
test_result = "128 to 130 °C"

[[record]]
molecule = "Cc1ccc(S(=O)(=O)Oc2ccc(S(=O)(=O)CC(=O)C(C)C)cc2)cc1"
test_result = "156 to 157 °C"

[[record]]
molecule = "CN1CCN(C2Cc3ccccc3Sc3cc(F)c(F)cc32)CC1 (centres undefined)"
test_result = "106 to 108 °C"

[[record]]
molecule = "Cc1cc(-c2nc3cccnn3c2-c2ccnc(NC(=O)NC3CC3)c2)ccc1F"
test_result = "222 to 223 °C"

[[record]]
molecule = "O=C(Nc1cc(CN2CCCCC2)c(O)c(CN2CCCCC2)c1)c1ccccc1"
test_result = "138 to 140 °C"

[[record]]
molecule = "CC(C)(C)OC(=O)N1CC=C(c2nc3c(Cl)cccc3s2)CC1"
test_result = "98 to 101 °C"

[[record]]
molecule = "C[C@@H](CNC(=O)COC(=O)c1cc(S(N)(=O)=O)c(Cl)cc1NCc1ccco1)O[N+](=O)[O-]"
test_result = "125 to 138 °C"

[[record]]
molecule = "N#Cc1ccc(-c2cc3ccccc3[nH]c2=S)cc1"
test_result = "284 to 289 °C"

[[record]]
molecule = "CN(C(=O)C1(CCCCCCCCCCCCC2(C(=O)O)CC2)CC1)S(C)(=O)=O"
test_result = "62.9 to 63.7 °C"

[[record]]
molecule = "CCOC(=O)c1c(CCl)nc2sc3c(c2c1-c1ccc(OC)c(OC)c1)CCN(C(=O)c1ccc(Cl)cc1)C3"
test_result = "132 to 133 °C"

[[record]]
molecule = "COCc1cnc2c(NC(=O)c3ccccc3C(F)(F)F)cccc2c1-n1ccnc1"
test_result = "126 to 127 °C"

[[record]]
molecule = "CCCCCCCCCCCCCCCCCC(=O)N1C(CCCCCCCCCCCCCCCCC)NC(=O)CC1C(=O)O (centres undefined)"
test_result = "107 to 111 °C"

[[record]]
molecule = "O=C(O)C(=O)c1ccc(OCCCc2ccc(F)cc2)cc1"
test_result = "77 to 78 °C"

[[record]]
molecule = "Cc1ccc(S(=O)(=O)c2cc3c(c(S(=O)(=O)NCCc4ccccc4F)c2)CCCC3)cc1"
test_result = "55 to 60 °C"

[[record]]
molecule = "Cc1ccc(-n2c(-c3cccc4ccccc34)ccc2-c2cccc3ccccc23)cc1"
test_result = "105 to 106 °C"

[[record]]
molecule = "COC(=O)c1ccc(-c2nc(Nc3cc(OC)c(OC)c(OC)c3)ncc2C#N)cc1"
test_result = "206 to 208 °C"

[[record]]
molecule = "Nc1ncnc2c1c(-c1cc(O)cc(F)c1)nn2Cc1oc2ccccc2c(=O)c1-c1cccc(F)c1"
test_result = "235 to 237 °C"

[[record]]
molecule = "COC(=O)C=C(C)NCc1ccccc1"
test_result = "36 to 37.5 °C"

[[record]]
molecule = "CCOC(=O)c1c(CCCn2cncn2)nc2sc3cnccc3c2c1-c1ccc(OC)c(OC)c1"
test_result = "127 to 129 °C"


---

Readout Label: melting point

[[record]]
molecule = "COc1ccc(-c2ccc(C(C)C=O)cc2F)cc1 (stereo not given)"
test_result = "55 to 59 °C"

[[record]]
molecule = "CNC(=O)[C@@H](C[C@H](O)[C@H](CC1CCCCC1)NC(=O)[C@H](Cc1cscn1)NC(=O)OC(C)(C)C)C(C)C"
test_result = "183 to 185 °C"

[[record]]
molecule = "CCOP(=O)(OCC)C(O[Si](C)(C)C)c1ccc(OC)c(C)c1 (stereo not given)"
test_result = "37 °C"

[[record]]
molecule = "CCOC(=O)c1ccc(NC2(C(N)=O)CCCCC2)cc1"
test_result = "155 to 157 °C"

[[record]]
molecule = "FC(F)(F)c1ccn(-c2cc(N3CCOCC3)nc3ccccc23)n1"
test_result = "118 to 120 °C"

[[record]]
molecule = "CCOCc1nc2c(N)nc3cc(Br)ccc3c2n1CC1COC(C)(C)O1 (stereo not given)"
test_result = "176 to 177 °C"

[[record]]
molecule = "Nc1ccc(Cl)cc1C(=O)C(F)(F)Cl"
test_result = "55 to 56 °C"

[[record]]
molecule = "Cc1cc(F)ccc1NC(=O)CCC#Cc1cccc(CF)n1"
test_result = "122 to 125 °C"

[[record]]
molecule = "CC(=O)c1cnc(N)o1"
test_result = "214 to 215 °C"

[[record]]
molecule = "CCN(CC)CCNC(=O)Cn1ncc(-c2ccccc2)c1-c1ccccc1"
test_result = "67 to 69 °C"


---

Readout Label: melting point

[[record]]
compound = "O=[PH](c1ccc2c(c1)OCO2)c1ccc2c(c1)OCO2"
test_result = "128 °C"

[[record]]
compound = "COc1cc(CCNC(=O)N(C)O)ccc1OCc1ccccc1"
test_result = "109 to 111 °C"

[[record]]
compound = "Clc1ccc(OCc2cccs2)cc1"
test_result = "45 to 47 °C"

[[record]]
compound = "CC(C)(C)OC(=O)N1CCC(C(=O)NC2=NCCCN2)CC1"
test_result = "155 to 160 °C"

[[record]]
compound = "Cc1ccc(C=NNC(=O)c2ccc(O)cc2)s1"
test_result = "216 °C"

[[record]]
compound = "CC(=O)CC(=O)NC1CCCC1"
test_result = "52 °C"

[[record]]
compound = "COC(=O)[C@H](Cc1ccccc1)NC(=O)CCC#N"
test_result = "71 to 72 °C"

[[record]]
compound = "Cc1ccc2c(c1)C=Cc1cc(C)ccc1C2c1cn(-c2ncc(C(=O)O)c(NCC(=O)O)n2)c(=O)[nH]c1=O"
test_result = "271 °C"

[[record]]
compound = "CC1(C)CC(=Cc2nc3cc(O)ccc3o2)CC(C)(C)C1"
test_result = "160 to 162 °C"

[[record]]
compound = "O=C(O)COc1cc(Cl)ccc1C(=O)NCc1nc2cc(C(F)(F)F)ccc2s1"
test_result = "225 to 227 °C"

[[record]]
compound = "CCC1c2cccn2-c2ccc(F)cc2N1S(=O)(=O)c1ccc(OC)c(C)c1 (configuration not stated)"
test_result = "164 to 166 °C"

[[record]]
compound = "CC(=O)NC(=O)Nc1ccc(OS(=O)(=O)c2cccc(C(F)(F)F)c2)cc1N"
test_result = "182 °C"

[[record]]
compound = "C[Si](C)(C)C#Cc1cnc(C(F)(F)F)nc1"
test_result = "75.5 to 76 °C"

[[record]]
compound = "C=CC[C@H]1Cc2c(OCOC)cccc2C(=O)O1"
test_result = "74 to 75 °C"

[[record]]
compound = "O=S(c1ccccc1)c1ccc(Cc2csc(Br)n2)cc1 (configuration not stated)"
test_result = "82 °C"

[[record]]
compound = "O=[N+]([O-])c1c(Cl)cc(-c2n[nH]cc2Cl)cc1Cl"
test_result = "177 °C"

[[record]]
compound = "O=C1c2ccccc2-c2cc(O)c(Cl)c(Cl)c21"
test_result = "276 to 284 °C"

[[record]]
compound = "NC(=O)c1ccc2c(c1)CCOC2CCN1CCN(c2ccc(Cl)cc2)CC1 (configuration not stated)"
test_result = "169 to 171 °C"

[[record]]
compound = "O=C1CC2C(CC(OC(=O)c3ccccc3)C2C=CC(O)C2(F)CCCC2)O1 (configuration not stated)"
test_result = "73 to 74 °C"

[[record]]
compound = "CC(C)(C)Cc1ccc(C(=O)c2ccccc2C(=O)O)cc1"
test_result = "154 °C"

[[record]]
compound = "COC(=O)CCC(=O)c1ccc(-c2ccccc2F)cc1"
test_result = "75.5 to 77.5 °C"

[[record]]
compound = "CC(C)(C)OC(=O)CC1CCNC(=O)c2ccccc21 (configuration not stated)"
test_result = "126 to 127 °C"


---

melting point values for the molecules below.
Readout Label: melting point

[[record]]
molecule = "COc1ccc(C2C(Oc3ccccc3)C(=O)N2c2ccc(C(=O)O)cc2)cc1 (centres undefined)"
test_result = "268 °C"

[[record]]
molecule = "COC(=O)c1cccc2c(Br)c(OC)ccc12"
test_result = "119 °C"

[[record]]
molecule = "C#CCOCCOC(=O)COc1ccc(Cl)c2cccnc12"
test_result = "53 °C"

[[record]]
molecule = "C/C(NCc1ccccc1)=C(\\C#N)C(N)=S"
test_result = "157 to 159 °C"

[[record]]
molecule = "COC(=O)C1=Cc2cc(-c3ccc(OCCOC(C)C)cc3)ccc2NCC1"
test_result = "86 to 88 °C"

[[record]]
molecule = "Nc1ncccc1OCc1ccccc1F"
test_result = "85 to 86 °C"

[[record]]
molecule = "N#CN=C(Nc1cccnc1)NC(NC(=O)c1ccc(Cl)cc1)C1CC1 (centres undefined)"
test_result = "137 to 139 °C"

[[record]]
molecule = "N#CC1=C(Nc2ccc(F)cc2F)CCC1"
test_result = "116 to 119 °C"

[[record]]
molecule = "COC1=CC(=O)C(Cc2ncn(C(c3ccccc3)(c3ccccc3)c3ccccc3)c2C)CC1 (centres undefined)"
test_result = "145 to 148 °C"

[[record]]
molecule = "COc1cc(OC)nc(C2(C#N)OC(=O)c3c(Cl)cccc32)n1 (centres undefined)"
test_result = "159 to 161 °C"

[[record]]
molecule = "CNC(=S)N1CC=C(C(C)(C)C)CC1"
test_result = "76 to 78 °C"

[[record]]
molecule = "CC1C(=O)NN(c2cc(Cl)cc(Cl)c2)C1=O (centres undefined)"
test_result = "95 to 100 °C"

[[record]]
molecule = "Cc1c(Cl)cccc1S(=O)(=O)Nc1ccc2onc(C)c2c1"
test_result = "163 °C"

[[record]]
molecule = "CC(=O)Nc1ccc(C(=O)SC[C@@H](C)C(=O)N2CSC[C@H]2C(=O)O)cc1"
test_result = "206 to 207 °C"

[[record]]
molecule = "O=C(/C=C/C=C/c1cccc2ccccc12)NCCCCCC(=O)NO"
test_result = "143 to 145 °C"

[[record]]
molecule = "c1ccc(OCC2CCN(CCCOc3cccc4[nH]ccc34)CC2)cc1"
test_result = "118 to 119 °C"

[[record]]
molecule = "CN(C)C1(c2ccc(F)cc2)CCC2(CC1)NCCc1c2[nH]c2ccccc12 (centres undefined)"
test_result = "249 to 250 °C"

[[record]]
molecule = "N#CC(CC(=O)O)c1ccc(Cl)c(Cl)c1 (centres undefined)"
test_result = "104 °C"

[[record]]
molecule = "COC(=O)Cc1nc(-c2cc(C(C)(C)C)c(O)c(C(C)(C)C)c2)oc1C"
test_result = "121 to 123 °C"

[[record]]
molecule = "Nc1ccc(Sc2ccccc2)cc1Cl"
test_result = "59 to 60 °C"

[[record]]
molecule = "CS(=O)(=O)c1cc(N)ccc1OC(F)(F)F"
test_result = "106 to 109 °C"

[[record]]
molecule = "NC(=O)c1cc2cc(N3CCNCC3)ccc2o1"
test_result = "252 to 255 °C"

[[record]]
molecule = "NC(=O)c1c(Cl)c(Cl)c(Cl)c(Cl)c1Cl"
test_result = "268 to 270 °C"

[[record]]
molecule = "COc1ccccc1N1Sc2ccccc2CC1=O"
test_result = "171 °C"

[[record]]
molecule = "CCN1CCC(=O)N(c2ccccc2F)C1=S"
test_result = "101 to 104 °C"

[[record]]
molecule = "CCOC(=O)c1ncn2c1CN(C)C(=O)c1ccccc1-2"
test_result = "163 to 165 °C"

[[record]]
molecule = "CC(=O)c1cc(N)c(Cl)cc1Cl"
test_result = "74 °C"

[[record]]
molecule = "C1=CC2=Nc3ccccc3OCN2C=C1"
test_result = "125 to 127 °C"

[[record]]
molecule = "Cc1nc2c(O)c(CC[C@@H](O)c3ccc(F)cc3)c(C(=O)N(C)C)cc2n1C"
test_result = "276 to 277 °C"

[[record]]
molecule = "CC(=O)Oc1cc(C=CC(=O)c2ccccc2)cc([N+](=O)[O-])c1OC(C)=O"
test_result = "183 to 185 °C"

[[record]]
molecule = "CCCc1c(OCCCOc2ccccc2)ccc2c1OC(CCC(=O)O)(CCC(=O)O)CC2=O"
test_result = "162 °C"

[[record]]
molecule = "CC(C)(C)OC(=O)[C@@H]1CCCN1C(=O)C1CCCC1SC(=O)c1ccccc1 (some centres undefined)"
test_result = "68 to 70 °C"

[[record]]
molecule = "Nc1sc2c(c1C(=O)c1ccc3ccccc3c1)CCN(Cc1ccccc1)C2"
test_result = "174 to 177 °C"

[[record]]
molecule = "Cc1sc(C(N)=O)c2c1-c1c(cnn1CC(F)(F)F)CC2"
test_result = "144 to 145 °C"

[[record]]
molecule = "COc1ccc(-c2c3ccc(OC)cc3cc3sc4ccccc4c23)cc1"
test_result = "158 to 159 °C"

[[record]]
molecule = "C[C@H](c1ccccc1)N1C(=O)N[C@@H]2C(=O)OC[C@@H]21"
test_result = "123 to 125 °C"

[[record]]
molecule = "CC(C)(C)c1ccccc1-n1cnnc1C(F)(F)F"
test_result = "120 °C"

[[record]]
molecule = "CC(=O)O[C@H]1C=C(Br)C(=O)[C@@H]2O[C@H]12"
test_result = "93 to 94 °C"

[[record]]
molecule = "CCCOc1ccccc1NC=C1C(=O)N(c2ccc(C(=O)O)cc2)N=C1C"
test_result = "260 °C"

[[record]]
molecule = "O=[N+]([O-])c1cccc(Nc2nccc(-c3ccccn3)n2)c1"
test_result = "213 to 219 °C"

[[record]]
molecule = "NCC(O)c1ccc([N+](=O)[O-])cc1 (centres undefined)"
test_result = "138 to 139 °C"

[[record]]
molecule = "CS(=O)c1ccc(C2=C(c3cccc(F)c3)C(=O)C(C)(C)O2)cc1 (centres undefined)"
test_result = "143 to 144 °C"

[[record]]
molecule = "CCCc1c(OCCOc2ccccc2C(=O)O)ccc(C(C)=O)c1O"
test_result = "108 to 110 °C"

[[record]]
molecule = "CC(C)(C)C(=O)NCCCN(CCCNC(=O)C(C)(C)C)c1ccccc1"
test_result = "72 °C"

